- measured-target: T1, human HGF (R&D Systems, 294-HG/CF) (human, UniProt P14210 32-728)
- T1 construct: The entry begins at QRKRR, without signal peptide; Amine-coupled to the chip in SPR and biotinylated in AlphaScreen; also called rec hHGF (R&D systems)
- T1 sequence (P14210 32-728 limits assumed): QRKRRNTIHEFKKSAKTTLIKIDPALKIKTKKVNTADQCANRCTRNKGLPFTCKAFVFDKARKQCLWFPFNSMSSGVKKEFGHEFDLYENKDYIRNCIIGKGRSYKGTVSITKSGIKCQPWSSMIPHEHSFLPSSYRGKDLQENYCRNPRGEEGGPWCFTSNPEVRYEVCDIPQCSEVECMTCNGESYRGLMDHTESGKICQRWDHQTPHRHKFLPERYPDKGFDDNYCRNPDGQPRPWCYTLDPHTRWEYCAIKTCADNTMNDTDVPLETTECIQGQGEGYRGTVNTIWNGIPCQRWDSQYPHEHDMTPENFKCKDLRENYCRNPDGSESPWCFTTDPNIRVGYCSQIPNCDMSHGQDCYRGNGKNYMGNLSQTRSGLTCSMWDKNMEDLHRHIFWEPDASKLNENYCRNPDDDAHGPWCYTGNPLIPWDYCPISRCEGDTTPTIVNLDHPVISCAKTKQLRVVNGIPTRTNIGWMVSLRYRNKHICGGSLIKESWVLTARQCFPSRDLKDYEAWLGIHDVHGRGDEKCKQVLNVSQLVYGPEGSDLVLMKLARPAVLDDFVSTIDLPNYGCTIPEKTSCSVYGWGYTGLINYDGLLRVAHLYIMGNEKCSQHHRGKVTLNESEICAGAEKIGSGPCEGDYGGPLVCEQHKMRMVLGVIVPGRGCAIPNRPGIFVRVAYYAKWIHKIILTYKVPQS
- experimental-protocol: AlphaScreen competition, biotinylated HGF and c-Met-Fc, dilution series of purified Nanobody
- Experimental: In brief, 5 μl of 1/5 prediluted periplasmic extract of individual Nanobody clones were incubated with 3 nM biotinylated HGF, 2 nM c-Met-Fc, streptavidin coated donor beads and anti-human IgG1 Fc Nanobody covalently coupled AlphaScreen acceptor beads. Monoclonal antibody clone 24612 (R&D systems) known to inhibit the HGF/c-Met-Fc interaction, was used as a positive control. Assays were read in an Envision AlphaScreen™ option fitted multimode reader (Perkin Elmer). […]
outcome-measure: pIC50
Please keep in mind that pIC50 is minus log10 of the molar concentration; only the number is needed.

Example entries begin here.
binder	outcome-measure	value-observed
1E2 (VHH, anti-HGF Nanobody clone; not shown: c-myc and His6 tags) VHH: EVQLVESGGGLVQPGGSLRLSCAASGRTFSSYAMGWFRQAPGKEREFVAGISWSGSSSYYADSVKGRFTISRDNAKNTVYLQMNSLKPEDTAVYYCAADPVGRADLYEYDYWGQGTQVTVSS	pIC50	8.74
1E9 (VHH, anti-HGF Nanobody clone; not shown: c-myc and His6 tags) VHH: EVQLVESGGGLVQPGGSLRLSCAASGFTLDHYTIGWFRQAPGNEREGVSCISSLDGSTYYADSVKGRFTISRDNAKDTVYLQMNSLKPEDTAVYYCAVAGCGAYGLIPYDYWGQGTQVTVSS	pIC50	8.35
6B2 (VHH, anti-HGF Nanobody clone; not shown: c-myc and His6 tags) VHH: EVQLVESGGGLVQAGGSLRLSCAASGRTFSSYAMGWFRQAPGKEREFVAAINWSGDSTYYADSVKGRFTISRDNAKNTVYLQMNSLKPEDTAVYYCAAGDVGRPDLYEYDYWGQGTQVTVSS	pIC50	8.55

Please turn your attention to the following entry.
Assign pIC50 to the following record: 6E10 (VHH, anti-HGF Nanobody clone; not shown: c-myc and His6 tags) VHH: EVQLVESGGGLVQAGGSLRLSCAASGRTDSSYAMGWFRQAPGKEHEFVAAISWSGGSTYYADSVKGRFTISRDNAKNTLYLQMNSLKPEDTAVYYCGASYRWGITHEYEYWGQGTQVTVSS 8.52
